- ASSAY SYSTEM: T1, Human factor D (Advanced Research Inc) (human, UniProt P00746 26-253)
- T1 construct: Amine-coupled directly to a CM5 chip for BIAcore; also called factor D antigen
- T1 sequence (P00746 26-253 limits assumed): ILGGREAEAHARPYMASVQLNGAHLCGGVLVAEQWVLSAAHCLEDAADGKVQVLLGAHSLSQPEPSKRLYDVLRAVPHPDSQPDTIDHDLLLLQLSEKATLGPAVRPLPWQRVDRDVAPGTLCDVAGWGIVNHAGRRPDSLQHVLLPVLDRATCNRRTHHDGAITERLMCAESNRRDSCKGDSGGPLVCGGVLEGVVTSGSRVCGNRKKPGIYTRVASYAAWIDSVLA
- ASSAY NAME: SPR (BIAcore), human factor D amine-coupled to CM5 chip, Fab as analyte, 1:1 model, global fit
RESULT TYPE: koff (s⁻¹)
Lab book: enter the figure in s⁻¹, no units written.

Lookup: Value lookup for koff; key = humanized anti-Factor D Fab clone #250 (Fab, V domains shown) VH: QVQLVQSGPELKKPGASVKVSCKASGYTFTNYGLNWVRQAPGQGLEWMGWINTYTGETTYADDFKGRFVFSLDTSVSTAYLQISSLKAEDTAVYYCEREGGVNNWGQGTLVTVSS VL: DIQVTQSPSSLSASVGDRVTITCITSTDIDDDMNWYQQKPGKVPKLLISHGNTLRPGVPSRFSGSGSGTDFTLTISSLQPEDVATYYCLQSDSLPYTFGQGTKLEIK
Found: 0.00019

src = patent US20130171070A1
